species: Rattus norvegicus; assay: DrugMatrix - Regimen: Daily Repeat; type: toxicity, organism-based, Sprague-Dawley; set-up: regimen Daily Repeat, gender Male, age 6-8 weeks; settings: in vivo, po, 0 mg/kg, 120 h, tissue Plasma, route oral GAVAGE, dose level Control, time 5 day, vehicle .5 % CMC
For each entry below, report its TOTAL PROTEIN value.
Give the number; G/DL is assumed, so skip it.

// lookup TOTAL PROTEIN for CCCNC(=O)NS(=O)(=O)c1ccc(Cl)cc1 [CHLORPROPAMIDE]
6.25

I am curious: what TOTAL PROTEIN value has been reported for CN1CCN(C2=Nc3cc(Cl)ccc3Nc3ccccc32)CC1 ?
6.25

Param item = CN(C)C(=O)C(CCN1CCC(O)(c2ccc(Cl)cc2)CC1)(c1ccccc1)c1ccccc1 [LOPERAMIDE] ; retrieve measured TOTAL PROTEIN.
6.02

Give its TOTAL PROTEIN value. Item: C#C[C@]1(O)CC[C@H]2[C@@H]3CCC4=CC(=O)CC[C@]4(C)[C@H]3CC[C@@]21C
6.72

Which TOTAL PROTEIN is listed for CCC1=C(C)CN(C(=O)NCCc2ccc(S(=O)(=O)NC(=O)N[C@H]3CC[C@H](C)CC3)cc2)C1=O [GLIMEPIRIDE] ?
6.02

Any idea what TOTAL PROTEIN was measured for CCCCC1=NC2(CCCC2)C(=O)N1Cc1ccc(-c2ccccc2-c2nnn[nH]2)cc1 ?
6.1

Reported TOTAL PROTEIN for C[C@@H]1O[C@@H](O[C@H]2C[C@@H](O)[C@]3(CO)[C@H]4[C@H](O)C[C@]5(C)[C@@H](C6=CC(=O)OC6)CC[C@]5(O)[C@@H]4CC[C@]3(O)C2)[C@H](O)[C@H](O)[C@H]1O : what is it?
6.08
